Cited source for all entries: patent US6943178B2

Counter-ions that a name gives are not always drawn.
Endpoint Name: melting point (°C)

{"columns": ["Molecule", "Quantitative Readout"],
 "data": [
  ["C1=C(c2c[nH]c3ccccc23)CCN(CC2COc3ccc4c(c3O2)OCCC4)C1 (stereo not shown) (as salt: oxalate)", 140],
  ["O=C1CCOc2c1ccc1c2OC(CN2CC=C(c3c[nH]c4ccccc34)CC2)CO1 (stereo not shown)", 210]
]}
